target: AuroraA-TPX2 (Homo sapiens, UniProt O14965); construct: 20 μL of AuroraA-TPX2 KD GST for a final volume of about 41 μL; GST; assay: AuroraA-TPX2 Homogeneous Time Resolved Fluorescent (HTRF) kinase assay; assay type: biochemical; settings: average; read-out: AurA_IC50_IP (uM Avg)
Sequence (O14965 133-383 limits assumed): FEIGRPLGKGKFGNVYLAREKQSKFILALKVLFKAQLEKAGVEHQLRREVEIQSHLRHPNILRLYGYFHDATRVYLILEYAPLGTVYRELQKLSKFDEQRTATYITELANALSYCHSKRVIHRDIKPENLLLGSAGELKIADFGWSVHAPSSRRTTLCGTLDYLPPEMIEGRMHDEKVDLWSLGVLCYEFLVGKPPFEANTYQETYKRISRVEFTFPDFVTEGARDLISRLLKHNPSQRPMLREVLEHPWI
Sequence (Q9ULW0 1-43 partner limits assumed): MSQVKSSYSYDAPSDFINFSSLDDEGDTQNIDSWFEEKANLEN
Measured metric: log10 IC50 (log10 of the value in µM)

molecule=COc1ccc2nccc(Sc3ccc(Nc4nnc(-c5cccc(C)n5)c5ccccc45)cc3)c2n1 assay_result=-0.51
molecule=COc1cnc2c(Sc3ccc(Nc4nnc(-c5ccc6c(c5)OCO6)c5ccccc45)cc3)ccnc2c1 assay_result=-1.85
molecule=O=C(c1cc2nccc(Sc3ccc(Nc4nnc(-c5ccccc5)c5ccccc45)cc3)c2s1)N1CCOCC1 assay_result=-1.04
molecule=COc1cnc2c(Sc3ccc(Nc4nnc(OCC(F)(F)F)c5ccccc45)cc3)ccnc2c1 assay_result=-0.64
molecule=Cc1ccc(-c2nnc(Nc3ccc(Sc4ccnc5ccoc45)cc3)c3ccccc23)nc1 assay_result=-0.38
molecule=CCc1cc(-c2ccc3c(c2)OCO3)nnc1Nc1ccc(Oc2ccnc3cc(OC)cnc23)cc1 assay_result=-1.03
molecule=COc1cc2nccc(Oc3ccc(Nc4nnc(-c5cccc(C)n5)c5ccccc45)cc3)c2cc1OC assay_result=-1.85
molecule=Cc1csc(-c2nnc(Nc3ccc(Sc4ccnc5ccncc45)cc3)c3ccccc23)c1 assay_result=-1.49
molecule=COc1cc2nccc(Oc3ccc(Nc4nnc(N5CCN(C)CC5)c5ccccc45)cc3)c2cn1 assay_result=-1.22
molecule=CCc1cc(-c2ccccc2)nnc1Nc1ccc(Oc2ccnc3cc(C#N)ccc23)cc1 assay_result=-0.84
molecule=COc1cnc2c(Sc3ccc(Nc4nnc(SC)c5ccccc45)cc3)ccnc2c1 assay_result=-0.72
molecule=COc1cc(F)cc2nccc(Oc3ccc(Nc4nnc(-c5ccc(Cl)cc5)c5ccccc45)cc3)c12 assay_result=-1.38
molecule=COc1cnc2c(Oc3ccc(Nc4nnc(N5CC[C@H]6CCCC[C@H]6C5)c5ccccc45)cc3)ccnc2c1 assay_result=-1.72
molecule="COc1cnc2c(Sc3ccc(Nc4nnc(N5CCN6CCCC[C@@H]6C5)c5ccccc45)cc3)ccnc2c1 [compound 584]" assay_result=-2.05
molecule=COc1cnc2c(Oc3ccc(Nc4nnc(-c5ccccc5)c5ccccc45)nc3)ccnc2c1 assay_result=-1.20
